// data source = patent US12325696B2

test: Pharmacokinetics in BALB/C nude mice after intragastric administration; format: in vivo; conditions: female, mouse, plasma, po, 2 mg/kg, read-out: Plasma concentration Cmax
metric: Cmax (ng/mL)
Provide the reading as a plain figure in ng/mL.

Report Cmax for CN(C)C(=O)/C=C/CN1CCC[C@@H](Oc2ccc(/C(=C(/CC(F)(F)F)c3ccccc3)c3ccc4[nH]nc(F)c4c3)cn2)C1 please. 87

====

assay: Pharmacokinetics in BALB/C nude mice after intragastric administration; type: in vivo; details: female, mouse, plasma, po, 2 mg/kg, read-out: Bioavailability F
metric: bioavailability

Report bioavailability for CN(C)C(=O)/C=C/CN1CCC[C@@H](Oc2ccc(/C(=C(/CC(F)(F)F)c3ccccc3)c3ccc4[nH]nc(F)c4c3)cn2)C1 please. 24.8%
